Answer each item with its documented G3P-DH (% control).
- System: Mitochondrial G3P-DH (glycerol 3-phosphate dehydrogenase), rat liver
- method_description: Mitochondrial G3P-DH activity in liver of steroid-fed rats (enzyme induction in rat liver by C19 steroids)
- Type: in vivo, rat (male Sprague Dawley)
- stated_conditions: 0.05 wt % steroid in diet, 6 days, rat liver mitochondria
Give bare numbers, in % control.

Worked cases, answers included:
{"compound": "C[C@]12CC[C@H](O)CC1=C[C@@H](O)[C@@H]1[C@@H]2CC[C@]2(C)C(=O)CC[C@@H]12 [Δ5 Androstene 3β,7α-ol-17-one, Δ5-Androstene 3β,7α-diol-17-one]", "G3P-DH (% control)": 292}
{"compound": "C[C@]12CC[C@H](O)CC1=CC[C@@H]1[C@@H]2CC[C@]2(C)C(=O)CC[C@@H]12 [DHEA, Δ5-androstene 3β-hydroxy, 17-one, reference compound]", "G3P-DH (% control)": 251}
{"compound": "C[C@]12CC[C@H](O)CC1=CC(=O)[C@@H]1[C@@H]2CC[C@]2(C)C(=O)CC[C@@H]12 [7-keto DHEA, Δ5-Androstene-3β-ol-7,17-dione]", "G3P-DH (% control)": 439}

## Task State its G3P-DH (% control) on Mitochondrial G3P-DH (glycerol 3-phosphate dehydrogenase), rat liver: C[C@]12CC[C@H]3[C@@H](C(=O)C=C4C[C@@H](O)CC[C@@]43C)[C@@H]1CC[C@@H]2O [Δ5-Androstene 3β,17β-diol-7-one, Δ5-Androstene-3β,17β-diol-7-one]
## Result 360

---

- System: Mitochondrial G3P-DH (glycerol 3-phosphate dehydrogenase), rat liver
- method_description: Mitochondrial G3P-DH activity in liver of steroid-fed rats (enzyme induction in rat liver by C19 steroids)
- Type: in vivo, rat (male Sprague Dawley)
- stated_conditions: 0.1 wt % steroid in diet, 6 days, rat liver mitochondria
quantity_name: G3P-DH (% control)
Numbers only, in % control.

Worked cases, answers included:
{"compound": "C[C@]12CC[C@H]3[C@@H]([C@H](O)C=C4C[C@@H](O)CC[C@@]43CO)[C@@H]1CCC2=O [Δ5 Androstene 3β,7α,19-ol-17-one, reference compound]", "unit_descriptor": "% control", "assay_value": 117}
{"compound": "C[C@]12CC[C@H]3[C@@H](C(=O)C=C4C[C@@H](O)CC[C@@]43C)[C@@H]1CC[C@@H]2O [Δ5-Androstene 3β,17β-diol-7-one, Δ5-Androstene-3β,17β-diol-7-one]", "unit_descriptor": "% control", "assay_value": 286}
{"compound": "C[C@]12CC[C@H](O)CC1=CC(=O)[C@@H]1[C@@H]2CC[C@]2(C)C(=O)CC[C@@H]12 [7-keto DHEA, Δ5-Androstene-3β-ol-7,17-dione]", "unit_descriptor": "% control", "assay_value": 220}
{"compound": "C[C@]12CC[C@H](O)CC1=CC[C@@H]1[C@@H]2CC[C@]2(C)C(=O)CC[C@@H]12 [DHEA, Δ5-androstene 3β-hydroxy, 17-one, reference compound]", "unit_descriptor": "% control", "assay_value": 265}
{"compound": "C[C@]12CC[C@H]3[C@@H]([C@H](O)C=C4C[C@@H](O)CC[C@@]43C)[C@@H]1CC[C@@H]2O [Δ5-Androstene 3β,7α,17β-triol]", "unit_descriptor": "% control", "assay_value": 227}

Now look at this entry.
## Task What value of G3P-DH (% control) has been reported for the following compound? CC1C=C2C[C@@H](O)CC[C@]2(C)[C@H]2CC[C@]3(C)C(=O)CC[C@H]3[C@H]12 (stereo partly drawn) [Δ5-Androstene-3β-ol-7-methyl-17-one, reference compound]
## Result 91
